Before we begin, note that these pKi values for Carbonic anhydrase 9 (Homo sapiens, UniProt Q16790) originate from several publications.
pKi: −log10 of the molar value.
Values of pKi greater than or equal to 7 map to 1; values below map to 0.

MOLECULE: N/C(=N\S(=O)(=O)c1ccccc1SCc1cccc2ccccc12)NNc1nc(Cl)nc(NCc2ccc(S(N)(=O)=O)cc2)n1
TARGET OR TEST SYSTEM: Carbonic anhydrase 9 (Homo sapiens, UniProt Q16790)
ANSWER LABEL: 0

MOLECULE: CC(C)(C)OC(=O)N1CCC(NC(=O)Nc2ccc(OS(N)(=O)=O)cc2)CC1
TARGET OR TEST SYSTEM: Carbonic anhydrase 9 (Homo sapiens, UniProt Q16790)
ANSWER LABEL: 1

MOLECULE: NS(=O)(=O)c1ccc2c(c1)C(=O)C(=O)N2Cc1ccccc1F
TARGET OR TEST SYSTEM: Carbonic anhydrase 9 (Homo sapiens, UniProt Q16790)
ANSWER LABEL: 0

MOLECULE: NS(=O)(=O)c1ccc(OCC#Cc2ccccc2)cc1
TARGET OR TEST SYSTEM: Carbonic anhydrase 9 (Homo sapiens, UniProt Q16790)
ANSWER LABEL: 1

MOLECULE: Cc1c(NC(=O)NCCc2ccc(S(N)(=O)=O)cc2)sc2nc3ccccc3n12
TARGET OR TEST SYSTEM: Carbonic anhydrase 9 (Homo sapiens, UniProt Q16790)
ANSWER LABEL: 1

MOLECULE: CCCN(CCC)S(=O)(=O)c1ccc(C(=O)Nc2ccc([N+](=O)[O-])cc2)cc1
TARGET OR TEST SYSTEM: Carbonic anhydrase 9 (Homo sapiens, UniProt Q16790)
ANSWER LABEL: 0

MOLECULE: CCn1c(-c2cc(C(=O)O)[nH]n2)cc2ccccc21
TARGET OR TEST SYSTEM: Carbonic anhydrase 9 (Homo sapiens, UniProt Q16790)
ANSWER LABEL: 1

MOLECULE: NS(=O)(=O)c1ccc(C(=O)N2CCc3cc(O)c(O)cc3[C@@H]2c2ccccc2)cc1
TARGET OR TEST SYSTEM: Carbonic anhydrase 9 (Homo sapiens, UniProt Q16790)
ANSWER LABEL: 1

MOLECULE: CCCN(CCC)S(=O)(=O)c1ccc(C(=O)Nc2ccccc2Cl)cc1
TARGET OR TEST SYSTEM: Carbonic anhydrase 9 (Homo sapiens, UniProt Q16790)
ANSWER LABEL: 1

MOLECULE: CC(=O)c1c(O)c2cc([N+](=O)[O-])ccc2oc1=O
TARGET OR TEST SYSTEM: Carbonic anhydrase 9 (Homo sapiens, UniProt Q16790)
ANSWER LABEL: 1

MOLECULE: Cn1nc(S(N)(=O)=O)s/c1=N/C(=O)CCSSCCC(=O)/N=c1/sc(S(N)(=O)=O)nn1C
TARGET OR TEST SYSTEM: Carbonic anhydrase 9 (Homo sapiens, UniProt Q16790)
ANSWER LABEL: 1

MOLECULE: NS(=O)(=O)c1ccc(NC(=O)CCC(=O)NCCOCCOCCOCCOCCOCCOCCOCCOCCOCCOCCOCCOCCOCCOCCOCCOCCOCCOCCOCCOCCOCCOCCOCCOCCOCCOCCOCCOCCOCCOCCOCCOCCOCCOCCOCCOCCOCCOCCOCCOCCOCCOCCOCCOCCOCCNC(=O)CCC(=O)Nc2ccc(S(N)(=O)=O)cc2)cc1
TARGET OR TEST SYSTEM: Carbonic anhydrase 9 (Homo sapiens, UniProt Q16790)
ANSWER LABEL: 1

MOLECULE: NS(=O)(=O)c1ccc(-n2nnc(CS[C@@H]3O[C@H](CO)[C@@H](O)[C@H](O)[C@H]3O)c2I)cc1
TARGET OR TEST SYSTEM: Carbonic anhydrase 9 (Homo sapiens, UniProt Q16790)
ANSWER LABEL: 1

MOLECULE: NS(=O)(=O)c1cnccc1-n1ccccc1=O
TARGET OR TEST SYSTEM: Carbonic anhydrase 9 (Homo sapiens, UniProt Q16790)
ANSWER LABEL: 1
